Reference for the values: patent US20250041429A1

TARGET SYSTEM: BTK protein (Homo sapiens)
Construct: endogenous in cells; host or cells: TMD-8 cells
Sequence (Q06187 whole entry): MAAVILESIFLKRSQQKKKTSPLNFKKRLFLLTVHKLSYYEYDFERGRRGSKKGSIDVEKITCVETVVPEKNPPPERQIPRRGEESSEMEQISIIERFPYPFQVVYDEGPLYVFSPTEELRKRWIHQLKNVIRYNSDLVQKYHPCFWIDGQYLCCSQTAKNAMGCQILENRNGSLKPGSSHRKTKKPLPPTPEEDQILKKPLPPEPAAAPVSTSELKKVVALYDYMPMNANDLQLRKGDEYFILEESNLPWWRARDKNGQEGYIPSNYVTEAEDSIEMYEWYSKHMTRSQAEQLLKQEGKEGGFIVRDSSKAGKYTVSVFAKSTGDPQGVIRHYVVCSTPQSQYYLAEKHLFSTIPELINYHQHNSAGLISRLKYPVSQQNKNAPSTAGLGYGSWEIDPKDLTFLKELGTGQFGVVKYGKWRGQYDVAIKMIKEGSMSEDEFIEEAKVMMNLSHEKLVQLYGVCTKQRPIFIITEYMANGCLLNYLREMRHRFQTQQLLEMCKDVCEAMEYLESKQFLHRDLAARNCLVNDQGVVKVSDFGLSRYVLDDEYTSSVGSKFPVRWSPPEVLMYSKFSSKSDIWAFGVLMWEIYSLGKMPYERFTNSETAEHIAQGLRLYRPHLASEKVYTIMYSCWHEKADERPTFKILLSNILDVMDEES
TEST DETAILS: Measurement of BTK protein degradation ability in TMD-8 cells (Western blotting)
Type: cell-based
CONDITION PARAMETERS: compound 1 nM, harvested after 24 hours
Values of BTK degradation (%) 1 nM greater than or equal to 30% map to Met; values below map to Not met.

[
  {
    "COMPOUND": "Cc1cc(-c2ccnc(Nc3ccc(N4CCC(CN5CCC(c6cccc(N7CCC(=O)NC7=O)c6)CC5)CC4)cc3)n2)ccc1CNC(=O)c1cn(C(C)(C)C)nn1",
    "CAT": "Not met"
  },
  {
    "COMPOUND": "Cc1cc(-c2ccnc(Nc3ccc(N4CCC(CN5CCN(c6ccc(NC7CCC(=O)NC7=O)cn6)CC5)CC4)cc3)n2)ccc1CNC(=O)c1cn(C(C)(C)C)nn1 (centres unmarked)",
    "CAT": "Met"
  },
  {
    "COMPOUND": "Cc1cc(-c2ccnc(Nc3ccc(N4CCN(CC5(C)CN(c6ccc7c(c6)C(=O)N(C6CCC(=O)NC6=O)C7=O)C5)CC4)cc3)n2)ccc1CNC(=O)N1CC(OC(C)C)C1 (centres unmarked)",
    "CAT": "Not met"
  },
  {
    "COMPOUND": "Cc1cc(-c2ccnc(Nc3ccc(N4CCC(CN5CCC(c6ccc(NC7CCC(=O)NC7=O)cc6)CC5)CC4)nc3)n2)ccc1CNC(=O)N1CC(OC(C)C)C1 (centres unmarked)",
    "CAT": "Not met"
  }
]

**Q:** Tell me whether BTK degradation (%) 1 nM is at least 30% here: `Cc1cc(-c2ccnc(Nc3ccc(N4CCN(CC5CCN(c6cccc(N7CCC(=O)NC7=O)c6)CC5)CC4)nc3)n2)ccc1CNC(=O)c1cn(C(C)(C)C)nn1`
**A:** Met

**Q:** Tell me whether BTK degradation (%) 1 nM is at least 30% here: Cc1cc(-c2ccnc(Nc3ccc(N4CCN(CC5CCN(c6ccc(NC7CCC(=O)NC7=O)cn6)CC5)CC4)cc3)n2)ccc1CNC(=O)N1CC(OC(C)C)C1 (centres unmarked)
**A:** Not met

**Q:** Tell me whether BTK degradation (%) 1 nM is at least 30% here: Cc1c(NC(=O)N2CC(OC(C)C)C2)cc(F)cc1-c1ccnc(Nc2ccc(N3CCN(CC4CN(c5ccc6c(c5)C(=O)N(C5CCC(=O)NC5=O)C6=O)C4)CC3)cc2)n1 (centres unmarked)
**A:** Not met

**Q:** Tell me whether BTK degradation (%) 1 nM is at least 30% here: Cc1cc(-c2ccnc(Nc3ccc(C4CCN(CC5CN(C(=O)c6cccc(NC7CCC(=O)NC7=O)c6)C5)CC4)cc3)n2)ccc1CNC(=O)N1CC(OC(C)C)C1 (centres unmarked)
**A:** Met

**Q:** Tell me whether BTK degradation (%) 1 nM is at least 30% here: `Cc1cc(-c2ccnc(Nc3ccc(C4CCN(CC5CCN(c6ccc(N7CCC(=O)NC7=O)cc6)CC5)CC4)cc3)n2)ccc1CNC(=O)c1cn(C(C)(C)C)nn1`
**A:** Not met

**Q:** Tell me whether BTK degradation (%) 1 nM is at least 30% here: `Cc1cc(-c2ccnc(Nc3ccc(CN4CCN(CC5CCN(c6ccc(N7CCC(=O)NC7=O)cc6)CC5)CC4)cc3)n2)ccc1CNC(=O)N1CC(OC(C)C)C1`
**A:** Not met

**Q:** Tell me whether BTK degradation (%) 1 nM is at least 30% here: Cc1cc(-c2ccnc(Nc3ccc(N4CCC(CN5CCN(c6cccc(NC7CCC(=O)NC7=O)c6)CC5)CC4)cc3)n2)ccc1CNC(=O)N1CC(OC(C)C)C1 (centres unmarked)
**A:** Not met
